These entries and their values trace back to PubChem BioAssay (NCATS).

assay: qHTS Screen of the MIPE 4.0 Collection Against Ewings Sarcoma (TC71) (AID 1259253); conditions: TC71 Ewing sarcoma viability, CellTiter-Glo, 48 h; series mostly up to 45.8 µM; also: nearly all actives have a fitted effect of over 40% in size
Inconclusive results are not listed. Calls of active or inactive are those of the source. Calls follow the shape of the dose curve; as a rule, active = well fitted inhibition curve with a large enough effect; inconclusive = small, poorly fitted or top-dose-only effect; inactive = no such curve, though single readings can be large or run the other way.
Labels: YES for active, NO for inactive

[[record]]
molecule = "Nc1[nH]nc2nnc(-c3c(-c4ccccc4)nn4ccccc34)cc12"
cat = "YES"

[[record]]
molecule = "CN1C(=O)C[C@H](C(=O)N[C@@H](Cc2cnc[nH]2)C(=O)N2CCC[C@@H]2C(N)=O)NC1=O"
cat = "YES"

[[record]]
molecule = "C=CCc1cccc(C=NNC(=O)CN2CCN(Cc3ccccc3)CC2)c1O"
cat = "YES"

[[record]]
molecule = "CN1[C@H]2CC[C@H]1CC(OC(=O)c1c[nH]c3ccccc13)C2 (stereo partly specified)"
cat = "YES"

[[record]]
molecule = "C=C1c2cccc(O)c2C(O)=C2C(=O)[C@@]3(O)C(O)=C(C(N)=O)C(=O)[C@@H](N(C)C)[C@@H]3[C@@H](O)[C@H]12"
cat = "YES"

[[record]]
molecule = "CC1(C)[C@H]2CC[C@]3(C)[C@@H](C(=O)C=C4[C@@H]5C[C@@](C)(C(=O)O)CC[C@]5(C)CC[C@]43C)[C@@]2(C)CC[C@@H]1O"
cat = "NO"

